Listing of entries alongside the reported DC50.
- SYSTEM TESTED: IRAK4 (Homo sapiens)
- Construct: Degradation of IRAK4 in OCI-LY10 was quantitatively measured using Meso Scale Discovery technology; endogenous in cells; host or cells: OCI-LY10
- Sequence (Q9NWZ3 whole entry): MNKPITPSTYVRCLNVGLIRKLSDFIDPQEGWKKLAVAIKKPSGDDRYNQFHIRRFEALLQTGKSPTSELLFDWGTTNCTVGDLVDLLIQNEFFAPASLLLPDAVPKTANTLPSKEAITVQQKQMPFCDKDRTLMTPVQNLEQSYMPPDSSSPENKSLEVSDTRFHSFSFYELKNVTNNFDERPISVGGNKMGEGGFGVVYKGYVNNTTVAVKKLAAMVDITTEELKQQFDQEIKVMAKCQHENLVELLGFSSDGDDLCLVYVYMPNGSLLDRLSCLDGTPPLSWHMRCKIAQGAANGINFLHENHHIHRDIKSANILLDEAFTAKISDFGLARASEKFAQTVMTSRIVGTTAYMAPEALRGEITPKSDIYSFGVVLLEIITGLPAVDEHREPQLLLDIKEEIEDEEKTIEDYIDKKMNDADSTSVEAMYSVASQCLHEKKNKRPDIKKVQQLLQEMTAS
- METHOD SUMMARY: IRAK4 MSD Degradation in OCI-LY10
- Type: cell-based
- COND: OCI-LY10 cells, 4 hrs incubation, MSD; read-out: IRAK4 degradation in OCI-LY10 at 4 hrs: DC50

Below: 4 compounds and their reported DC50.
• CN(C[C@H]1CC[C@H](n2cc(NC(=O)c3cnn4ccc(N5CCCC56CC6)nc34)c(C(F)F)n2)CC1)C1CCN(c2cccc3c2n(C)c(=O)n3C2CCC(=O)NC2=O)CC1(F)F (some centres unmarked) = > 200 nM
• Cn1c(=O)n(C2CCC(=O)NC2=O)c2cccc(OC3CN(C[C@H]4CC[C@H](n5cc6cc(NC(=O)c7cccc(C(F)(F)F)n7)ncc6n5)CC4)C3)c21 (some centres unmarked) = > 200 nM
• Cn1c(=O)n(C2CCC(=O)NC2=O)c2cccc(N3CC(CO[C@@H]4CCN(C[C@H]5CC[C@H](n6cc(NC(=O)c7cnn8ccc(N9C[C@H]%10CC9CO%10)nc78)c(C(F)F)n6)CC5)C[C@@H]4F)C3)c21 (some centres unmarked) = > 200 nM
• Cn1c(=O)n(C2CCC(=O)NC2=O)c2cccc([C@H]3CCN(C[C@H]4CC[C@H](n5cc6cc(NC(=O)c7cccc(C(F)(F)F)n7)ccc6n5)CC4)C[C@@H]3O)c21 (some centres unmarked) = > 200 nM

Lookup: Provide DC50 value for the following compound: Cn1c(=O)n(C2CCC(=O)NC2=O)c2cccc(N3CCN(CC4COC5(C4)CN(C[C@H]4CC[C@H](n6cc7cc(NC(=O)c8cccc(C(F)(F)F)n8)ccc7n6)CC4)C5)CC3)c21 (some centres unmarked) [I-661]
Found: > 200 nM

Lookup: Provide DC50 value for the following compound: Cn1c(=O)n(C2CCC(=O)NC2=O)c2cccc(C#CCN3CCN(C[C@H]4CC[C@H](n5cc(NC(=O)c6cnn7ccc(N8CCOC(C(F)F)C8)nc67)c(C(F)F)n5)CC4)CC3)c21 (some centres unmarked)
Found: > 200 nM

Lookup: Provide DC50 value for the following compound: Cn1c(=O)n(C2CCC(=O)NC2=O)c2cccc(N3CCN([C@H]4CCN(C[C@H]5CC[C@H](n6cc(NC(=O)c7cnn8ccc(N9C[C@H]%10C[C@@H]9CO%10)nc78)c(C(F)F)n6)CC5)CC4(F)F)CC3)c21 (some centres unmarked) [I-366]
Found: > 200 nM

Lookup: Provide DC50 value for the following compound: Cn1c(=O)n(C2CCC(=O)NC2=O)c2cccc(C3CC(CN4CCN(C[C@H]5CC[C@H](n6cc(NC(=O)c7cnn8ccc(N9C[C@H]%10C[C@@H]9CO%10)nc78)c(C(F)F)n6)CC5)CC4)C3)c21 (some centres unmarked)
Found: < 10 nM

Lookup: Provide DC50 value for the following compound: Cn1c(=O)n(C2CCC(=O)NC2=O)c2cccc(C#CCOC3CCN(C[C@H]4CC[C@H](n5cc(NC(=O)c6cnn7ccc(C8CCOCC8)nc67)c(C(F)F)n5)CC4)CC3)c21 (some centres unmarked)
Found: > 200 nM

Lookup: Provide DC50 value for the following compound: C[C@H]1CN(CCCc2cccc3c2n(C)c(=O)n3C2CCC(=O)NC2=O)CCN1C[C@H]1CC[C@H](n2cc(NC(=O)c3cnn4ccc(N5C[C@H]6C[C@@H]5CO6)nc34)c(C(F)F)n2)CC1 (some centres unmarked)
Found: > 200 nM

Lookup: Provide DC50 value for the following compound: Cn1c(=O)n(C2CCC(=O)NC2=O)c2cccc(N3CCC(O[C@H]4CC[C@H](n5cc6cc(NC(=O)c7cccc(C(F)(F)F)n7)ccc6n5)CC4)CC3)c21 (some centres unmarked)
Found: > 200 nM

Lookup: Provide DC50 value for the following compound: Cn1c(=O)n(C2CCC(=O)NC2=O)c2cccc([C@H]3C[C@H](OC4CCN(C[C@H]5CC[C@H](n6cc(NC(=O)c7cnn8ccc(N9C[C@H]%10C[C@@H]9CO%10)nc78)c(C(F)F)n6)CC5)CC4)C3)c21 (some centres unmarked)
Found: > 200 nM

Lookup: Provide DC50 value for the following compound: Cn1c(=O)n(C2CCC(=O)NC2=O)c2cccc([C@H]3C[C@](F)(CN4CCN(C[C@H]5CC[C@H](n6cc(NC(=O)c7cnn8ccc(N9C[C@H]%10CC9CO%10)nc78)c(C(F)F)n6)CC5)CC4)C3)c21 (some centres unmarked)
Found: > 200 nM

Lookup: Provide DC50 value for the following compound: Cn1c(=O)n(C2CCC(=O)NC2=O)c2cccc(N3CCN(CC4CCN(C[C@H]5CC[C@H](n6cc(NC(=O)c7cnn8ccc(N9C[C@H]%10C[C@@H]9CO%10)nc78)c(C(F)F)n6)CC5)CC4)CC3)c21 (some centres unmarked)
Found: < 10 nM

Lookup: Provide DC50 value for the following compound: C[C@@H]([C@H]1CC[C@H](n2cc(NC(=O)c3cnn4cccnc34)c(C(F)F)n2)CC1)N(C)C1CCN(c2cccc3c2n(C)c(=O)n3C2CCC(=O)NC2=O)CC1 (some centres unmarked)
Found: > 200 nM

Lookup: Provide DC50 value for the following compound: Cn1c(=O)n(C2CCC(=O)NC2=O)c2cccc(N3CCC(O[C@H]4CC[C@H](n5cc6cc(NC(=O)c7cccc(C(F)(F)F)n7)ncc6n5)CC4)CC3)c21 (some centres unmarked)
Found: > 200 nM

Lookup: Provide DC50 value for the following compound: CN1CCN(c2ccn3ncc(C(=O)Nc4cn([C@H]5CC[C@H](CN6CCN(CC#Cc7cccc8c7n(C)c(=O)n8C7CCC(=O)NC7=O)CC6)CC5)nc4C(F)F)c3n2)CC1C(F)(F)F (some centres unmarked)
Found: > 200 nM

Lookup: Provide DC50 value for the following compound: O=C1CCC(c2ccc(N3CC(N4CCN([C@H]5CC[C@H](n6cc(NC(=O)c7cnn8ccc(N9C[C@H]%10C[C@@H]9CO%10)nc78)c(C(F)F)n6)CC5)CC4)C3)cc2Cl)C(=O)N1 (some centres unmarked)
Found: > 200 nM

Lookup: Provide DC50 value for the following compound: Cn1c(=O)n(C2CCC(=O)NC2=O)c2cccc(C#CCOC3CCN(C[C@H]4CC[C@H](c5ccc(NC(=O)c6cnn7ccc(N8C[C@H]9C[C@@H]8CO9)nc67)c(C(F)F)c5)CC4)CC3)c21 (some centres unmarked)
Found: > 200 nM

Lookup: Provide DC50 value for the following compound: Cc1ccn2ncc(C(=O)Nc3cn([C@H]4CC[C@H](CN5CCN(CC#Cc6cccc7c6n(C)c(=O)n7C6CCC(=O)NC6=O)CC5)CC4)nc3C(F)F)c2n1 (some centres unmarked)
Found: 10 to 100 nM
